B1: library; numbered along this chain (parent)
chain: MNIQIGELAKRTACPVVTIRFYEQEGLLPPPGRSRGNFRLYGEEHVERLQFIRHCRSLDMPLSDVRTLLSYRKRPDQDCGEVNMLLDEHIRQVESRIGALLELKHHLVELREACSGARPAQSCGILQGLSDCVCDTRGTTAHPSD

Variants of: B1
Assay: sfGFP reporter fluorescence (15 h) (µM FITC); higher = stronger transcriptional activation
Conditions: library round: Round 0; ligand: 30 µM Zn
measurementKind: sfGFP reporter fluorescence

Query: Field request: sfGFP reporter fluorescence | item: "L85Q"
Result: 0.0658

Query: Field request: sfGFP reporter fluorescence | item: P61N D64K G128I
Result: 3.51

Query: Field request: sfGFP reporter fluorescence | item: "E109C"
Result: 1.54

Query: Field request: sfGFP reporter fluorescence | item: "E43C"
Result: 0.481

Query: Field request: sfGFP reporter fluorescence | item: "G6I"
Result: 0.0618

Query: Field request: sfGFP reporter fluorescence | item: "G128S"
Result: 1.3

Query: Field request: sfGFP reporter fluorescence | item: "V46P"
Result: 0.0641

Query: Field request: sfGFP reporter fluorescence | item: "Y41D"
Result: 0.0621

Query: Field request: sfGFP reporter fluorescence | item: "C79F"
Result: 0.0546

Query: Field request: sfGFP reporter fluorescence | item: P61N D64K L107C G128I
Result: 4.54

Query: Field request: sfGFP reporter fluorescence | item: "R39I"
Result: 0.0726

Query: Field request: sfGFP reporter fluorescence | item: "C55Y"
Result: 0.0601

Query: Field request: sfGFP reporter fluorescence | item: "C114G"
Result: 0.05

Query: Field request: sfGFP reporter fluorescence | item: "V82Q"
Result: 0.0552

Query: Field request: sfGFP reporter fluorescence | item: "D131S"
Result: 0.962

Query: Field request: sfGFP reporter fluorescence | item: "R72A"
Result: 0.373

Query: Field request: sfGFP reporter fluorescence | item: "I97E"
Result: 0.386

Query: Field request: sfGFP reporter fluorescence | item: "V108W"
Result: 0.554

Query: Field request: sfGFP reporter fluorescence | item: "Y41H"
Result: 0.0678

Query: Field request: sfGFP reporter fluorescence | item: "E112S"
Result: 1.9

Query: Field request: sfGFP reporter fluorescence | item: "D131F"
Result: 0.723

Query: Field request: sfGFP reporter fluorescence | item: "R111H"
Result: 0.234

Query: Field request: sfGFP reporter fluorescence | item: M60L P61N D64K K104V
Result: 3.03

Query: Field request: sfGFP reporter fluorescence | item: D64A L68S
Result: 0.0803

Query: Field request: sfGFP reporter fluorescence | item: "H89F"
Result: 0.063

Query: Field request: sfGFP reporter fluorescence | item: P61N D64K K104V G128M
Result: 3.37

Query: Field request: sfGFP reporter fluorescence | item: "E94M"
Result: 0.598

Query: Field request: sfGFP reporter fluorescence | item: "D64I"
Result: 3.78

Query: Field request: sfGFP reporter fluorescence | item: "R39E"
Result: 0.066

Query: Field request: sfGFP reporter fluorescence | item: "E7L"
Result: 0.846

Query: Field request: sfGFP reporter fluorescence | item: M60L D64K K104V L107C
Result: 3.44

Query: Field request: sfGFP reporter fluorescence | item: "L126M"
Result: 0.22

Query: Field request: sfGFP reporter fluorescence | item: "V46W"
Result: 0.429

Query: Field request: sfGFP reporter fluorescence | item: "L126T"
Result: 0.057

Query: Field request: sfGFP reporter fluorescence | item: "V108A"
Result: 0.408

Query: Field request: sfGFP reporter fluorescence | item: "E94P"
Result: 0.0557

Query: Field request: sfGFP reporter fluorescence | item: "D135W"
Result: 1.83

Query: Field request: sfGFP reporter fluorescence | item: "E7T"
Result: 0.904

Query: Field request: sfGFP reporter fluorescence | item: M60L D64K K104V
Result: 4.63

Query: Field request: sfGFP reporter fluorescence | item: "G128N"
Result: 0.875

Query: Field request: sfGFP reporter fluorescence | item: "K104Y"
Result: 1.09

Query: Field request: sfGFP reporter fluorescence | item: "G6E"
Result: 0.0625

Query: Field request: sfGFP reporter fluorescence | item: "P61R"
Result: 1.42

Query: Field request: sfGFP reporter fluorescence | item: "D131T"
Result: 0.747

Query: Field request: sfGFP reporter fluorescence | item: "L68Y"
Result: 0.908

Query: Field request: sfGFP reporter fluorescence | item: "Y22P"
Result: 0.0621

Query: Field request: sfGFP reporter fluorescence | item: "D135G"
Result: 0.802

Query: Field request: sfGFP reporter fluorescence | item: P61N D64K
Result: 3.05

Query: Field request: sfGFP reporter fluorescence | item: "I3L"
Result: 0.821

Query: Field request: sfGFP reporter fluorescence | item: "Y41S"
Result: 0.0616

Query: Field request: sfGFP reporter fluorescence | item: "C114K"
Result: 0.0563

Query: Field request: sfGFP reporter fluorescence | item: "R48A"
Result: 0.398

Query: Field request: sfGFP reporter fluorescence | item: M60L G128M
Result: 4.69

Query: Field request: sfGFP reporter fluorescence | item: "C79E"
Result: 0.0548

Query: Field request: sfGFP reporter fluorescence | item: "R96A"
Result: 0.294

Query: Field request: sfGFP reporter fluorescence | item: "R20N"
Result: 0.102

Query: Field request: sfGFP reporter fluorescence | item: "E43K"
Result: 2.36

Query: Field request: sfGFP reporter fluorescence | item: "D87A"
Result: 0.393

Query: Field request: sfGFP reporter fluorescence | item: "N37A"
Result: 0.481

Query: Field request: sfGFP reporter fluorescence | item: P61N D64K L107C G128M
Result: 4.84

Query: Field request: sfGFP reporter fluorescence | item: "K104S"
Result: 1

Query: Field request: sfGFP reporter fluorescence | item: "P30H"
Result: 0.659

Query: Field request: sfGFP reporter fluorescence | item: "L62F"
Result: 0.168

Query: Field request: sfGFP reporter fluorescence | item: "R20D"
Result: 0.0687

Query: Field request: sfGFP reporter fluorescence | item: "V65A"
Result: 0.153

Query: Field request: sfGFP reporter fluorescence | item: "E7D"
Result: 1.08

Query: Field request: sfGFP reporter fluorescence | item: "E43N"
Result: 1.21

Query: Field request: sfGFP reporter fluorescence | item: K104V G128M
Result: 3.33

Query: Field request: sfGFP reporter fluorescence | item: "P143W"
Result: 0.751

Query: Field request: sfGFP reporter fluorescence | item: "E109P"
Result: 1.45

Query: Field request: sfGFP reporter fluorescence | item: "P15A"
Result: 0.691

Query: Field request: sfGFP reporter fluorescence | item: "L68N"
Result: 0.0599

Query: Field request: sfGFP reporter fluorescence | item: "E43G"
Result: 0.924

Query: Field request: sfGFP reporter fluorescence | item: P61N D64K L107C
Result: 3.69

Query: Field request: sfGFP reporter fluorescence | item: "R20V"
Result: 0.0627

Query: Field request: sfGFP reporter fluorescence | item: "R111L"
Result: 0.2

Query: Field request: sfGFP reporter fluorescence | item: "D131I"
Result: 0.832

Query: Field request: sfGFP reporter fluorescence | item: "L107Q"
Result: 0.764

Query: Field request: sfGFP reporter fluorescence | item: "I90D"
Result: 0.085

Query: Field request: sfGFP reporter fluorescence | item: "M84A"
Result: 0.807

Query: Field request: sfGFP reporter fluorescence | item: "C134V"
Result: 1.13

Query: Field request: sfGFP reporter fluorescence | item: "P143Y"
Result: 0.73

Query: Field request: sfGFP reporter fluorescence | item: "V82E"
Result: 0.0541

Query: Field request: sfGFP reporter fluorescence | item: "E112L"
Result: 0.851

Query: Field request: sfGFP reporter fluorescence | item: "P143V"
Result: 0.757

Query: Field request: sfGFP reporter fluorescence | item: "N83C"
Result: 0.0649

Query: Field request: sfGFP reporter fluorescence | item: "P143I"
Result: 0.801

Query: Field request: sfGFP reporter fluorescence | item: "L58S"
Result: 0.0563

Query: Field request: sfGFP reporter fluorescence | item: "I3Q"
Result: 0.336

Query: Field request: sfGFP reporter fluorescence | item: "L40A"
Result: 0.207

Query: Field request: sfGFP reporter fluorescence | item: "H89D"
Result: 0.0828
